Tested on: PfHDP1 homeodomain (GST-tagged)
assay notes: gcPBM binding intensity (ln(normalized median fluorescence intensity)); higher = stronger DNA binding
The full ranking holds about 25,000 sequences; the median of “ln(normalized median fluorescence intensity)” is about 6.7, and the highest 2% start at about 10. The entries come from a sample that favours the highest values as a whole.
property measured: gcPBM binding intensity (ln)
One number for each entry.

residue_string="TTTATTTTATCATTTGCACACGCACGCCCACATAAA [CACACA_site353]" endpoint_value=10.6
residue_string="TTTATTTTATCATTTGCACACGCACCCCCACATAAA [CACACA_site8007]" endpoint_value=10.2
residue_string="ATTGCTTTTCTTTTTGCACACTTATGCATATATATA [CACACA_site2584]" endpoint_value=10.4
residue_string="TTTCTATATGGATTTGCACACATAAAAATGCTTATA [CACACA_site8751]" endpoint_value=10.2

--- query ---
What does the data say about its gcPBM binding intensity (ln)? Entry: TATTTTATCATTTGCACACGCACACCGACATAAAAA [CACACA_site4348]
10.6
